Where do the numbers come from? From patent US12545658B2.

Target: human TMEM16A (TMEM16Aabc variant) (Homo sapiens)
Construct: human TMEM16A (TMEM16Aabc variant)
Assay: Automated whole-cell patch clamp (QPatch) TMEM16A potentiator assay in FRT cells stably expressing human TMEM16A
Format: cell-based
Conditions: 3.3 μM test compound; percentage increase of baseline TMEM16A current
Experimental: Fisher rat thyroid (FRT) cells stably expressing human TMEM16A (TMEM16Aabc variant; Dr Luis Galietta, Insituto Giannina, Italy) were cultured in T-75 flasks in Hams F-12 media with Coon's modification (Sigma) supplemented with 10% (v/v) foetal bovine serum, penicillin-streptomycin (10,000 U/mL/10000 μg/mL), G-418 (750 μg/mL), L-glutamine (2 mM) and sodium bicarbonate solution (7.5% v/v). […]
property-name: QPatch TMEM16A % Potentation @ 3.3 μM (%)

P. CC(C)(C)NC(=O)c1cc(NC(=O)Cc2cc3[nH]ncc3cc2Cl)ccn1
Q. C#CC1(NC(=O)c2cc(NC(=O)Cc3ccc4cn[nH]c4c3)ccn2)CCCC1
R. N#CC1(NC(=O)c2cc(NC(=O)Cc3ccc4cc[nH]c4c3)ccn2)CCOCC1
Prompt: Order by QPatch TMEM16A % Potentation @ 3.3 μM, ascending. Please list each label once, in the requested order.
Completion: P, R, Q
(P: 82%, R: 134%, Q: 237%)

1. CC1(NC(=O)c2cc(NC(=O)Cc3ccc4cc[nH]c4c3)ccn2)CC(F)(F)C1
2. CC(C)c1n[nH]c2cc(CC(=O)Nc3ccnc(C(=O)NC(C)(C)C)c3)ccc12
Prompt: Consider entries 1 and 2 . Which has the numerically lower QPatch TMEM16A % Potentation @ 3.3 μM? I would appreciate it if you answered with the label of your choice.
Completion: 1

----------
Target: human TMEM16A (TMEM16Aabc variant) (Homo sapiens)
Construct: human TMEM16A (TMEM16Aabc variant)
Test: Automated whole-cell patch clamp (QPatch) TMEM16A potentiator assay in FRT cells stably expressing human TMEM16A
Assay type: cell-based
Conditions: 370 nM test compound; percentage increase of baseline TMEM16A current
property-name: QPatch TMEM16A % Potentiation @ 370 nM (%)

1. CC(C)(NC(=O)c1cc(NC(=O)Cc2ccc3cc[nH]c3c2)ccn1)C(F)(F)F
2. O=C(Cc1ccc2cc[nH]c2c1)Nc1ccnc(C(=O)NC2(C(F)(F)F)CC2)c1
Prompt: Which numeric QPatch TMEM16A % Potentiation @ 370 nM is bigger, that of 1 or that of 2 ? Your answer should be the label attached to the chosen record.
Completion: 2
(2: 145%, 1: 47%)

----------
Target: human TMEM16A (TMEM16Aabc variant) (Homo sapiens, UniProt Q5XXA6)
Construct: human TMEM16A (TMEM16Aabc variant)
Test: Automated whole-cell patch clamp (QPatch) TMEM16A potentiator assay in FRT cells stably expressing human TMEM16A
Format: cell-based
Details: 3.3 μM test compound; percentage increase of baseline TMEM16A current
property-name: QPatch TMEM16A % Potentation @ 3.3 μM (%)

Answered cases to consult:
molecule	numeric-readout
C#CC1(NC(=O)c2cc(NC(=O)Cc3cc(Cl)c4cn[nH]c4c3)ccn2)CCCC1 [Example 6.4]	78
CC1(NC(=O)c2cc(NC(=O)Cc3ccc4cn[nH]c4c3)ccn2)CC(F)(F)C1 [Example 4.3]	226
CC(C)(NC(=O)c1cc(NC(=O)Cc2ccc3cn[nH]c3c2)ccn1)C(F)(F)F [Example 4.1]	118
C#CC(C)(C)NC(=O)c1cc(NC(=O)Cc2ccc3cc[nH]c3c2)ccn1 [Example 1]	38
O=C(Cc1cc2[nH]ncc2cc1F)Nc1ccnc(C(=O)NC2CCCC2(F)F)c1 (centres unmarked) [Example 6.2]	70

P. CC(C)(C)NC(=O)c1cc(NC(=O)Cc2cc(Cl)c3cn[nH]c3c2)ccn1 [Example 7.2]
Q. C#CC(C)(C)NC(=O)c1cc(NC(=O)Cc2cccc3[nH]ncc23)ccn1 [Compound A, reference compound]
R. C#CC(C)(C)NC(=O)c1cc(NC(=O)Cc2cccc3cc[nH]c23)ccn1 [Compound B, reference compound]
Prompt: Order the 3 molecules from highest to lowest QPatch TMEM16A % Potentation @ 3.3 μM. Respond with an ordered listing of the labels, as requested.
Completion: Q, P, R
(Q: 223%, P: 142%, R: 64%)

I. CC(C)(C)NC(=O)c1cc(NC(=O)Cc2cc3[nH]ncc3cc2F)ccn1 [Example 6]
II. O=C(Cc1ccc2cn[nH]c2c1)Nc1ccnc(C(=O)NC2(C(F)(F)F)CCC2)c1 [Example 5.1]
Prompt: // which entry has the larger QPatch TMEM16A % Potentation @ 3.3 μM value, I or II ? Return value: the label identifying the chosen record.
Completion: I
(I: 164%, II: 110%)

a. O=C(Cc1ccc2cn[nH]c2c1)Nc1ccnc(C(=O)NC2(C(F)(F)F)COC2)c1 [Example 11.3]
b. CC(C)(NC(=O)c1cc(NC(=O)Cc2ccc3cn[nH]c3c2)ccn1)C(F)F [Example 5]
Prompt: Identify the entry with the smaller QPatch TMEM16A % Potentation @ 3.3 μM: a or b . // return label of chosen record
Completion: b

----------
Target: human TMEM16A (TMEM16Aabc variant) (Homo sapiens, UniProt Q5XXA6)
Construct: human TMEM16A (TMEM16Aabc variant)
Assay: Automated whole-cell patch clamp (QPatch) TMEM16A potentiator assay in FRT cells stably expressing human TMEM16A
Details: FRT-TMEM16A cells, whole-cell patch clamp, peak current at +70 mV, intracellular calcium at EC20
pEC50: −log10 of the molar value.
property-name: pEC50

Some compounds with recorded pEC50:
structure-string	study-target	pEC50
CC(C)(C)NC(=O)c1cc(NC(=O)Cc2cc3[nH]ncc3cc2Cl)ccn1	human TMEM16A (TMEM16Aabc variant) (Homo sapiens, UniProt Q5XXA6)	6.57
O=C(Cc1ccc2c(C(F)(F)F)n[nH]c2c1)Nc1ccnc(C(=O)NC2(C(F)(F)F)CC2)c1	human TMEM16A (TMEM16Aabc variant) (Homo sapiens, UniProt Q5XXA6)	6.22

P. CC(C)c1n[nH]c2cc(CC(=O)Nc3ccnc(C(=O)NC(C)(C)C)c3)ccc12
Q. CC1(NC(=O)c2cc(NC(=O)Cc3ccc4cc[nH]c4c3)ccn2)CC(F)(F)C1
Prompt: Endpoint returns whichever of P and Q has the numerically higher pEC50. Please indicate the selected item by its label.
Completion: Q
(Q: 7.30, P: 6.55)

----------
Target: human TMEM16A (TMEM16Aabc variant) (Homo sapiens, UniProt Q5XXA6)
Construct: human TMEM16A (TMEM16Aabc variant)
Test: Automated whole-cell patch clamp (QPatch) TMEM16A potentiator assay in FRT cells stably expressing human TMEM16A
Settings: FRT-TMEM16A cells, whole-cell patch clamp, peak current at +70 mV, intracellular calcium at EC20
property-name: EC50 (nM)

compound	EC50 [nM]
CC(C)(C)NC(=O)c1cc(NC(=O)Cc2cc3[nH]ncc3cc2F)ccn1 [Example 6]	230

a. CC(C)(NC(=O)c1cc(NC(=O)Cc2ccc3cn[nH]c3c2)ccn1)C(F)F [Example 5]
b. C#CC(C)(C)NC(=O)c1cc(NC(=O)Cc2ccc3cn[nH]c3c2)ccn1 [Example 3]
Prompt: Among a and b , whose measured EC50 is the smaller figure? Provide the label of your selected option as the answer.
Completion: b

P. N#CC1(NC(=O)c2cc(NC(=O)Cc3ccc4cc[nH]c4c3)ccn2)CCOCC1 [Example 13.2]
Q. CC(C)(C)NC(=O)c1cc(NC(=O)Cc2cc(F)c3cn[nH]c3c2)ccn1 [Example 7]
Prompt: Given P and given Q , which shows the smaller recorded EC50? Pick one; state its label.
Completion: Q
(Q: 70 nM, P: 130 nM)

----------
Molecular target: human TMEM16A (TMEM16Aabc variant) (Homo sapiens, UniProt Q5XXA6)
Construct: human TMEM16A (TMEM16Aabc variant)
Test: Automated whole-cell patch clamp (QPatch) TMEM16A potentiator assay in FRT cells stably expressing human TMEM16A
Format: cell-based
Conditions: 370 nM test compound; percentage increase of baseline TMEM16A current
property-name: QPatch TMEM16A % Potentiation @ 370 nM (%)

molecule	uom	numeric-readout
O=C(Cc1ccc2cn[nH]c2c1)Nc1ccnc(C(=O)NC23CC(F)(C2)C3)c1 [Example 11.5]	%	41
CC(O)(c1n[nH]c2cc(CC(=O)Nc3ccnc(C(=O)NC4(C(F)(F)F)CC4)c3)ccc12)C(F)(F)F (centres unmarked) [Example 12]	%	204
O=C(Cc1ccc2cn[nH]c2c1)Nc1ccnc(C(=O)NC2CCCC2(F)F)c1 (centres unmarked) [Example 5.3]	%	69

I. C#CC1(NC(=O)c2cc(NC(=O)Cc3cc(Cl)c4cn[nH]c4c3)ccn2)CCCC1 [Example 6.4]
II. CC(C)(C)NC(=O)c1cc(NC(=O)Cc2cc(F)c3cn[nH]c3c2)ccn1 [Example 7]
Prompt: Of I and II , which carries the smaller reported QPatch TMEM16A % Potentiation @ 370 nM figure? // return label of chosen record
Completion: I
(I: 55%, II: 88%)

1. CC(C)(NC(=O)c1cc(NC(=O)Cc2ccc3cn[nH]c3c2)ccn1)C(F)(F)F [Example 4.1]
2. CC1(NC(=O)c2cc(NC(=O)Cc3ccc4cn[nH]c4c3)ccn2)CC(F)(F)C1 [Example 4.3]
3. C#CC(C)(C)NC(=O)c1cc(NC(=O)Cc2cccc3cc[nH]c23)ccn1 [Compound B, reference compound]
4. CC(C)(C)NC(=O)c1cc(NC(=O)Cc2ccc3c(C(F)(F)F)n[nH]c3c2)ccn1 [Example 8]
Prompt: List items by QPatch TMEM16A % Potentiation @ 370 nM in falling order. Labels, ranked as asked.
Completion: 2, 1, 4, 3
(2: 173%, 1: 96%, 4: 65%, 3: 42%)

A. O=C(Cc1ccc2cn[nH]c2c1)Nc1ccnc(C(=O)NC2(C(F)(F)F)CCC2)c1 [Example 5.1]
B. CC(C)c1n[nH]c2cc(CC(=O)Nc3ccnc(C(=O)NC(C)(C)C)c3)ccc12 [Example 9]
Prompt: Could you please tell me which of these two has the higher QPatch TMEM16A % Potentiation @ 370 nM: A or B ? Returns: label corresponding to the selected item.
Completion: B
(B: 113%, A: 76%)
